system: PBMC; experiment: Antiproliferative activity against human PBMC; assay type: cell-based
pIC50: −log10 of the molar value.
Each entry below carries its reported pIC50.

RECORD SMILES | SYSTEM UNDER TEST | pIC50
C/C=C/C[C@@H](C)[C@@H](O)[C@H]1C(=O)N[C@@H](CC)C(=O)N(C)CC(=O)N(C)[C@@H](CC(C)C)C(=O)N[C@@H](C(C)C)C(=O)N(C)[C@@H](CC(C)C)C(=O)N[C@@H](C)C(=O)N[C@H](C)C(=O)N(C)[C@@H](CC(C)C)C(=O)N(C)[C@@H](CC(C)C)C(=O)N(C)[C@@H](C(C)C)C(=O)N1C | PBMC | 7.92
O=c1ccc2c(O[C@@H]3O[C@H](CO)[C@@H](O)[C@H](O)[C@H]3O)c(O)c3occc3c2o1 | PBMC | 4.48

These data points were gathered from ChEMBL document CHEMBL1142560.
